These measurements were taken from PubChem BioAssay.

Assay: small-molecule binders of probe aNOTCH3, primary screen, biochemical, small-molecule microarray, 635/667 nm fluorescence (AID 1120);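 further: probe is a biotin-tagged antibody raised against NOTCH3 rather than NOTCH3 protein; score merges spot fluorescence near 667 nm with spot signal to noise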
Conditions: higher = more signal
Reported composite z-score values follow for various molecules

Illustrative cases are given below, each with its answer.
{"columns": ["entry_smiles", "value_reported"],
 "data": [
  ["O=C(N1CCCCC1)[C@@]1(CCS(=O)(=O)c2ccccc2)COC(c2ccc(OCCCO)cc2)=N1", 0.289],
  ["CCCNC(=O)[C@@]1(c2ccc([N+](=O)[O-])cc2)CC(=O)N(C2CCCCC2)[C@@H]1c1ccc(CO)cc1", 0.135],
  ["CCCC[C@@H]1C[C@H]1[C@@H](NC(=O)Cc1ccccc1)c1ccc(-c2ccccc2)cc1", -0.006],
  ["O=C(CS)NCCCCCCNC(=O)[C@H]1C[C@H]2C(=O)N[C@@H](Cc3ccccc3)C(=O)N2[C@H]1c1ccc(O)cc1", -0.423],
  ["COc1ccc(CCNC(=O)[C@@]2(Sc3ccc(C)cc3)CC(=O)N(C3Cc4ccccc4C3)[C@@H]2c2ccc(CO)cc2)cc1", 0.0522]
]}

Recorded composite z-score for Cc1ccc(S[C@]2(C(=O)NCCCN(C)C)CC(=O)N(C3CCCCC3)[C@@H]2c2ccc(CO)cc2)cc1 , please? -0.182

Would you mind telling me what composite z-score value was observed for COC(=O)[C@@]1(Cc2ccc(F)cc2)[C@H]2c3cc(C(=O)N(C)C)n(Cc4cc(F)cc5c4OCOC5)c3C[C@H]2CN1C(=O)c1ccccc1 ? 0.24

// lookup composite z-score for COc1ccc(-c2nc(-c3ccccc3)c3c(c2C)CO[Si]3(C(C)C)C(C)C)cn1 -0.126

* * *

Consider the following compounds and their measured z-score readings.
Assay: PSAC antagonists in infected red cells, primary screen, cell-based, P. falciparum Indochina, OD700, 1 h (AID 1154)
Conditions: P. falciparum Indochina infected RBC osmotic lysis, higher = more signal, called active from +8 up or from −8 down
// no unit, no text: just the number

Example entries begin here.
{"columns": ["compound", "value_reported"],
 "data": [
  ["COc1ccc(CCN2C(=O)[C@@]3(Cc4ccccc42)c2ccccc2C(=O)N(Cc2ccccc2OC)[C@H]3c2ccc(CO)cc2)cc1", 1.96],
  ["COc1ccc(-c2nc(-c3ccccc3)c3c(c2C)CO[Si]3(C(C)C)C(C)C)cn1", 0.574],
  ["COc1ccc(C#Cc2ccc3c(c2)[C@]2(C(=O)N3)[C@H](c3ccc(O)cc3)N3[C@H](c4ccccc4)[C@H](c4ccccc4)OC(=O)[C@H]3[C@@H]2C(=O)O)cc1", -1.12],
  ["COC(=O)c1nc2oc1CC[C@@H](CO)NC(=O)N(C)Cc1cnnn1C[C@H](Cc1ccccc1)NC2=O", 1.23],
  ["NCCCCCNC(=O)[C@@H]1C[C@@H]2C(=O)NCC(=O)N2[C@@H]1c1cccc(OCCO)c1", 2.11],
  ["C=C(/C(=C/C[C@H](OC(C)=O)c1cccc(OCCO)c1)c1cnc2ccccc2c1)C(C)C", 18.7],
  ["O[C@@H](Cc1ccccc1)[C@@H](/C=C/C1CC1)N(CC#Cc1ccccc1)Cc1cccc(Cl)c1", 1.49],
  ["COC(=O)[C@@]1(Cc2ccccc2)[C@H]2c3cc(C(=O)N(C)C)n(CCN4CNCC4=O)c3C[C@H]2CN1C(=O)c1ccccc1", 0.274],
  ["C[C@@H]1NC(=O)[C@@]23C(=O)N[C@@H](Cc4ccccc4)C2[C@H](C)[C@@]2(C)O[C@H]2C3/C=C/C/C=C\\CNC(=O)[C@@H]2CCCN2C1=O (stereo not given in full)", 0.518],
  ["C=C(COC)/C(=C/C[C@H](OC(C)=O)c1ccc(OCCO)cc1)c1cc(C(=O)OC)ccc1OC", 24.8]
]}

Report z-score for COc1cccc(/C=C/C=O)c1 please. 0.206

I have this compound here, O=C(NCC(F)(F)F)[C@@H]1c2ccccc2C(=O)N(Cc2ccccc2C(F)(F)F)[C@H]1c1ccc(CO)cc1 , and I need its recorded z-score. 1.45

Which z-score is listed for [N-]=[N+]=NCc1ccccc1C[C@@]1(C(=O)N2CCOCC2)N=C(c2ccc(OCCCO)cc2)O[C@@H]1c1ccccc1 ? 27

Field request: z-score | item: O=C1N(Cc2ccccc2)Cc2ccccc2[C@@H]2OC(c3ccc(OCCCO)cc3)=N[C@]12CCS(=O)(=O)c1ccccc1 21.2

z-score for C=CCC(OC(C)=O)[C@@H]1[C@@H](N(Cc2ccc(-c3ccccc3)cc2)C(=O)Cc2ccc(F)cc2)c2cc(OCCCO)ccc2N1C(=O)Cc1ccc(OC)cc1 (stereo not given in full) ? 3.94

If you can, please state the reported z-score value of COCCCNC(=O)[C@@]1(Cc2ccccc2CN=[N+]=[N-])N=C(c2ccc(OCCCO)cc2)O[C@H]1c1ccccc1 . 17.1

# query: z-score of entry C=C(C)c1cc2c(c(CCCCCC)n1)[Si](C(C)C)(C(C)C)OC2 1.18
